# subject.of.test: PGR (gene 5241) (UniProt P06401)
# Sequence (P06401 whole entry, looked up): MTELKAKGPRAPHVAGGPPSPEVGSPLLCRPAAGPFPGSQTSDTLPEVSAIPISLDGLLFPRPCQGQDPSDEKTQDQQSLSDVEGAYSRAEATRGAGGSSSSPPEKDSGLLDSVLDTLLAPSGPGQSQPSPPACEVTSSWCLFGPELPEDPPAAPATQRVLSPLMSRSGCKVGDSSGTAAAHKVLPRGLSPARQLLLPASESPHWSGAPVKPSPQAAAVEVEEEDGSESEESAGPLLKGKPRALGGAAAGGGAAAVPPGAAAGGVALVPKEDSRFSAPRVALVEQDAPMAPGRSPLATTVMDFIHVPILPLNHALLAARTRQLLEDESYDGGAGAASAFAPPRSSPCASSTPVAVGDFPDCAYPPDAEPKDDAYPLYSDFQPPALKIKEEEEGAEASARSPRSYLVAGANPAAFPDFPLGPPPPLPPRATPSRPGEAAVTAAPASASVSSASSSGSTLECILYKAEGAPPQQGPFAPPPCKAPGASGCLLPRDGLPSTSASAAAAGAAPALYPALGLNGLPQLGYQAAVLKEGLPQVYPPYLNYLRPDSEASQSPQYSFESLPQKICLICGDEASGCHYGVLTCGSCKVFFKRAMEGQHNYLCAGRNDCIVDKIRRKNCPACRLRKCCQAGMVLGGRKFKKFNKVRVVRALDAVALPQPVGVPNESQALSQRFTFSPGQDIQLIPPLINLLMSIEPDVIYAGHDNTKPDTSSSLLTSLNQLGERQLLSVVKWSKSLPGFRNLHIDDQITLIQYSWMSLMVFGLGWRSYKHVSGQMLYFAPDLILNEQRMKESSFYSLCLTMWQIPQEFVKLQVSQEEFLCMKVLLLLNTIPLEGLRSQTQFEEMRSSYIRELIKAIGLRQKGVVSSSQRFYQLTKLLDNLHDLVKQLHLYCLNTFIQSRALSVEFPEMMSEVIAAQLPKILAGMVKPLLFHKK
# experiment.description: NVS_NR_hPR: NovaScreen (NVS) Nuclear Receptor Binding Assay for human Progestron Receptor (PR) (AID 2283360);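 also: active means loss of bound radioligand signal versus DMSO baseline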
Inconclusive results are not listed. Calls of active or inactive are those of the source. The calls were made as follows: active = hit-call score of the fitted dose curve at least 0.9, where 1 is the maximum; inconclusive = response in the unintended direction; inactive = score below 0.9.
Would you mind answering with one of these outcomes? Yes = active, No = inactive

Recorded results for 4 molecules are shown here.
>  <smiles.text>
COC(=O)CCCCC(=O)OC

>  <category>
No

$$$$
>  <smiles.text>
CCCOc1sc(C(=O)N2CCC(c3cc(CN)ccc3F)CC2)c(C)c1Br

>  <category>
No

$$$$
>  <smiles.text>
CC[C@H](c1ccc(O)cc1)[C@@H](CC)c1ccc(O)cc1

>  <category>
Yes

$$$$
>  <smiles.text>
CCCCCCC(=O)O

>  <category>
No

$$$$

Recorded call for "c1ccc2c(c1)Cc1ccccc1-2" ?
No

* * *

# experiment.description: BSK_SAg_PBMCCytotoxicity: PBMC Cytotoxicity Assessment in the BioMAP Diversity Plus: SAg Assay (AID 2283093);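 also: PBMC viability measured as Alamar Blue reduction fluorescence at 546/580 nm; fitted both ways against DMSO so a hit may be loss or gain of signal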
# assay.context: primary human HUVEC with PBMC
Activity calls are given as the source filed them. How the source made its calls: active means hit-call score of the fitted dose curve at least 0.9, where 1 is the maximum; inactive means score below 0.9.
Just give me one of these, please: active, inactive

>  <compound>
Cc1cc(C)c(O)c(C)c1

>  <category>
inactive

$$$$
>  <compound>
CC(=O)NC1(c2cccc(F)c2)CCN(CC[C@@]2(c3ccc(Cl)c(Cl)c3)CN(c3ccccc3)C(=O)CO2)CC1

>  <category>
active

$$$$
>  <compound>
COCC(C)O (configuration not stated)

>  <category>
inactive

$$$$
>  <compound>
O=c1c(-c2ccc(O)cc2)coc2cc(O)ccc12

>  <category>
inactive

$$$$

Call for entry "NC(=O)N(O)[C@@H]1C=C[C@H](Oc2cccc(Oc3ccc(F)cc3)c2)C1" :
inactive

Outcome logged for "c1ccc2cc3c(ccc4ccccc43)cc2c1" in this assay:
inactive

// return assay outcome for "COc1ccc([N+](=O)[O-])cc1N"
inactive

* * *

# subject.of.test: Cellular tumor antigen p53 (Homo sapiens)
# experiment.description: TOX21_p53_BLA_p2_ratio: Tox21 HCT-116 p53 Agonism Beta-lactamase Assay, Ratio, Phase 2 (AID 2283592)
Records with an inconclusive call do not appear. Active and inactive are the calls of the source. The calls were made as follows: active = hit-call score of the fitted dose curve at least 0.9, where 1 is the maximum; inconclusive = response in the unintended direction; inactive = score below 0.9.
The reply should be one of these categories: label 1 (active), label 0 (inactive)

Answered examples (5):
>  <compound>
NC(=O)N(O)[C@@H]1C=C[C@H](Oc2cccc(Oc3ccc(F)cc3)c2)C1

>  <category>
label 1

$$$$
>  <compound>
C=C(C)C(=O)OCCC(F)(F)C(F)(F)C(F)(F)C(F)(F)C(F)(F)C(F)(F)F

>  <category>
label 0

$$$$
>  <compound>
CCCCCCCCC(=O)O

>  <category>
label 0

$$$$
>  <compound>
CC(C)(C)c1cccc(C(C)(C)C)c1O

>  <category>
label 0

$$$$
>  <compound>
NC(=O)N1C(=O)C(C(=O)c2cc(Cl)cs2)c2cc(F)c(Cl)cc21 (stereo unspecified)

>  <category>
label 0

$$$$

Dear colleague, could you share the recorded outcome for "O=C(O)Cc1cc(I)c(Oc2cc(I)c(O)c(I)c2)c(I)c1" when you have a moment?
label 0

* * *

# Read-out: C-C motif chemokine 2 (Homo sapiens) (UniProt P13500)
# experiment.description: BSK_KF3CT_MCP1: BioMAP Diversity Plus: KF3CT Assay for Monocyte Chemoattractant Protein 1 (MCP1/CCL2) Biomarker Activity (AID 2283073)
# assay.context: primary human keratinocytes with fibroblasts; actives raise or lower the signal
Activity calls are given as the source filed them. The calls were made as follows: active = hit-call score of the fitted dose curve at least 0.9, where 1 is the maximum; inactive = score below 0.9.
metric.name: AC50

Worked cases, AC50 given:
>  <molecule>
CCC(=C(c1ccc(O)cc1)c1ccc(OCCN(C)C)cc1)c1ccccc1

>  <result>
10.2 µM (active)

$$$$
>  <molecule>
CCCCC(CC)COC(=O)CCCCC(=O)OCC(CC)CCCC (configuration not stated)

>  <result>
inactive

$$$$
>  <molecule>
Cc1oc(-c2ccccc2)nc1CCOc1ccc(C[C@H](Nc2ccccc2C(=O)c2ccccc2)C(=O)O)cc1

>  <result>
5.22 µM (active)

$$$$
>  <molecule>
CCCOc1sc(C(=O)N2CCC(c3cc(CN)ccc3F)CC2)c(C)c1Br

>  <result>
9.27 µM (active)

$$$$
>  <molecule>
CC(=O)NC1(c2cccc(F)c2)CCN(CC[C@@]2(c3ccc(Cl)c(Cl)c3)CN(c3ccccc3)C(=O)CO2)CC1

>  <result>
inactive

$$$$
>  <molecule>
CCCOC(=O)c1ccc(O)cc1

>  <result>
inactive

$$$$

Let us move to another entry and its AC50.
Supply recorded AC50 for "CC(=O)CC(C)(C)O" here.
inactive

* * *

# experiment.description: ATG_VDRE_CIS: Attagene CIS-FACTORIAL HepG2 Assay for human Vitamin D Receptor Element (VDRE) (AID 2282968)
# assay.context: HepG2 VDRE cis-reporter transcription, actives raise or lower the signal
Calls of active or inactive are those of the source. Rule for the calls: active = hit-call score of the fitted dose curve at least 0.9, where 1 is the maximum; inactive = score below 0.9.
Your answer must be one of the following: 1 for active, -1 for inactive

// below: answered compounds
>  <compound>
Cc1ccc(S(=O)(=O)O)c(C)c1

>  <category>
-1

$$$$
>  <compound>
COCC(C)OCC(C)O (configuration not stated)

>  <category>
-1

$$$$
>  <compound>
CCCCCCCCCCCCCCCS(=O)(=O)Oc1ccccc1

>  <category>
-1

$$$$
>  <compound>
CCCCC[C@H](O)CC(=O)CCc1ccc(O)c(OC)c1

>  <category>
1

$$$$
>  <compound>
CCCCCCCCCCCCCC[N+](C)(C)C

>  <category>
-1

$$$$
>  <compound>
CCCCCCCCCCCCc1ccccc1S(=O)(=O)O

>  <category>
-1

$$$$
>  <compound>
CCCCC(CC)COC(=O)CCCCC(=O)OCc1ccccc1 (configuration not stated)

>  <category>
-1

$$$$
>  <compound>
COc1cc(CCC(=O)CC(=O)CCc2ccc(O)c(OC)c2)ccc1O

>  <category>
1

$$$$
>  <compound>
CCCCCCCCCCCCN1CCCC1=O

>  <category>
-1

$$$$
>  <compound>
CC(=O)NC1(c2cccc(F)c2)CCN(CC[C@@]2(c3ccc(Cl)c(Cl)c3)CN(c3ccccc3)C(=O)CO2)CC1

>  <category>
1

$$$$

// outcome(item) with item = "CCN(CC)CCNc1ccc(CNC=O)c2sc3ccc(OC)cc3c(=O)c12"
1

For "CCOC(=O)CC(O)(CC(=O)OCC)C(=O)OCC" , what call appears in the results of this test?
-1

* * *

# Read-out: Monokine induced gamma interferon (MIG), CXCL9 (gene 4283)
# experiment.description: BSK_SAg_MIG: BioMAP Diversity Plus: SAg Assay for Monokine induced gamma interferon (MIG) Biomarker Activity (AID 2283092)
# assay.context: primary human HUVEC with PBMC; actives raise or lower the signal
The source made the active and inactive calls. Rule for the calls: active = hit-call score of the fitted dose curve at least 0.9, where 1 is the maximum; inactive = score below 0.9.
Hi! Could you answer with just one of these? T for active, F for inactive

For orientation, consider the following solved cases.
>  <compound>
NCC(F)(F)C(F)(F)C(F)(F)C(F)(F)C(F)(F)C(F)(F)C(F)(F)F

>  <category>
F

$$$$
>  <compound>
CCc1ccc(CCOc2ccc(CC3SC(=O)NC3=O)cc2)nc1 (stereo unspecified)

>  <category>
F

$$$$
>  <compound>
CN1CCC[C@H]1c1cccnc1

>  <category>
F

$$$$
>  <compound>
CCCCCCCCC(=O)O

>  <category>
F

$$$$
>  <compound>
CCCCCCCCCCCCc1ccccc1S(=O)(=O)O

>  <category>
F

$$$$
>  <compound>
c1ccc2c(c1)ccc1ccccc12

>  <category>
F

$$$$
>  <compound>
C[C@@H]1C[C@H]2[C@@H]3CCC4=CC(=O)C=C[C@]4(C)[C@@]3(F)[C@@H](O)C[C@]2(C)[C@@]1(O)C(=O)COP(=O)(O)O

>  <category>
F

$$$$
>  <compound>
CC(C)(C)CC(C)(C)c1ccc(O)c(-n2nc3ccccc3n2)c1

>  <category>
F

$$$$
>  <compound>
COC(=O)CCCCC(=O)OC

>  <category>
F

$$$$
>  <compound>
c1ccc2cc3c(ccc4ccccc43)cc2c1

>  <category>
F

$$$$

Query: recorded result category for "O=C(O)Cc1cc(I)c(Oc2cc(I)c(O)c(I)c2)c(I)c1" in this test
T

Answer briefly: the call reported for "CCC(=C(c1ccc(O)cc1)c1ccc(OCCN(C)C)cc1)c1ccccc1" in this assay.
T

What did this assay record as the result for "ClC1=C(Cl)C(Cl)(Cl)C(Cl)=C1Cl" ?
T

Which result was noted for this compound in the test: "CCCCCCCCCCCCN1CCCC1=O"
T

Please let me know the test result on file for "Nc1cccc2c(N)cccc12" .
F

What call does the record list for "c1ccc2c(c1)Cc1ccccc1-2" ?
F

Dear colleague, could you share the recorded outcome for "CC[C@H](C)[C@@H](C(=O)O)n1sc2ccccc2c1=O" when you have a moment?
F

Which outcome did this test record for the compound "CC(C)(C)c1ccc(O)c(C(C)(C)C)c1" ?
T
